Tested on: Staphylococcus sp.
procedure-summary: In vitro antibacterial evaluation: minimum inhibitory concentration (MIC), broth dilution method
Type: cell-based
settings: broth dilution, 18 hours at 35° C.
// reported MIC Staphylococcus aureus (GC 4545) per item

As a guide, the following entries are already answered.
CC(c1ccccc1)C1NC(=O)CNC(=O)C(CO)NC(=O)C(C(O)C2CN(Cc3ccc(-c4ccccc4)cc3)C(=N)N2C2OC(CO)C(O)C(O)C2O)NC(=O)C(C(O)C2CNC(=NCc3ccc(-c4ccccc4)cc3)N2Cc2ccc(-c3ccccc3)cc2)NC(=O)C(Cc2ccc(OC3OC(CO)C(OC4OC(CO)C(O)C(O)C4O)C(O)C3O)cc2)NC1=O (centres unmarked)    4 mg/L
CC(c1ccccc1)C1NC(=O)CNC(=O)C(CO)NC(=O)C(C(O)C2CNC(=N)N2C2OC(CO)C(O)C(O)C2O)NC(=O)C(C(O)C2CNC(=N)N2)NC(=O)C(Cc2ccc(OC3OC(CO)C(OC4OC(COC(=O)C(c5ccccc5)c5ccccc5)C(O)C(O)C4O)C(O)C3O)cc2)NC1=O (centres unmarked) [Example 96c]    0.5 mg/L
CC(c1ccccc1)C1NC(=O)CNC(=O)C(CO)NC(=O)C(C(O)C2CN(Cc3ccc(C(C)(C)C)cc3)C(=N)N2C2OC(CO)C(O)C(O)C2O)NC(=O)C(C(O)C2CNC(=N)N2)NC(=O)C(Cc2ccc(OC3OC(CO)C(OC4OC5COC6(OC5C(O)C4O)C4CC5CC(C4)CC6C5)C(O)C3O)cc2)NC1=O (centres unmarked)    8 mg/L

Data request: Give MIC Staphylococcus aureus (GC 4545) for the following compound: CC(c1ccccc1)C1NC(=O)CNC(=O)C(CO)NC(=O)C(C(O)C2CN(Cc3ccccc3)C(=NCc3ccccc3)N2C2OC(CO)C(O)C(O)C2O)NC(=O)C(C(O)C2CN(Cc3ccccc3)C(=NCc3ccccc3)N2Cc2ccccc2)NC(=O)C(Cc2ccc(OC3OC(CO)C(OC4OC5COC6(OC5C(O)C4O)C4CC5CC(C4)CC6C5)C(O)C3O)cc2)NC1=O (centres unmarked)
Data returned: 4 mg/L

Data request: Quick one: give measured MIC Staphylococcus aureus (GC 4545) for CC(C)=CCCC(C)=CCN=C1NCC(C(O)C2NC(=O)C(C(O)C3CNC(=N)N3)NC(=O)C(Cc3ccc(OC4OC(CO)C(OC5OC6COC7(OC6C(O)C5O)C5CC6CC(C5)CC7C6)C(O)C4O)cc3)NC(=O)C(C(C)c3ccccc3)NC(=O)CNC(=O)C(CO)NC2=O)N1C1OC(CO)C(O)C(O)C1O (centres unmarked)
Data returned: 8 mg/L

---

Tested on: Enterococcus sp.
procedure-summary: In vitro antibacterial evaluation: minimum inhibitory concentration (MIC), broth dilution method
Type: cell-based
settings: Enterococcus avium (GC 4558); 18 hours at 35° C.
Below is a list of entries, each paired with its recorded MIC Enterococcus avium (GC 4558) value.
Report as a plain number; the unit µg/mL is understood.

CC(c1ccccc1)C1NC(=O)CNC(=O)C(CO)NC(=O)C(C(O)C2CNC(=N)N2C2OC(CO)C(O)C(O)C2O)NC(=O)C(C(O)C2CNC(=N)N2)NC(=O)C(Cc2ccc(OC3OC(CO)C(OC4OC(COCC=C(c5ccccc5)c5ccccc5)C(O)C(O)C4O)C(O)C3O)cc2)NC1=O (centres unmarked)    4

Please examine the following record next.
Data request: State, for Enterococcus sp., measured MIC Enterococcus avium (GC 4558) of the compound listed here: CC(C)=CCN1CC(C(O)C2NC(=O)C(C(O)C3CNC(=N)N3)NC(=O)C(Cc3ccc(OC4OC(CO)C(OC5OC6COC7(OC6C(O)C5O)C5CC6CC(C5)CC7C6)C(O)C4O)cc3)NC(=O)C(C(C)c3ccccc3)NC(=O)CNC(=O)C(CO)NC2=O)N(C2OC(CO)C(O)C(O)C2O)C1=N (centres unmarked)
Data returned: 4

---

Tested on: Enterococcus sp.
procedure-summary: In vitro antibacterial evaluation: minimum inhibitory concentration (MIC), broth dilution method
Assay type: cell-based
settings: strain GC 3059
reported-endpoint: MIC Enterococcus faecalis (GC 3059) (µg/mL)
Answer format: numeric, µg/mL implied, no suffix.

Data request: Supply recorded MIC Enterococcus faecalis (GC 3059) for CC(c1ccccc1)C1NC(=O)CNC(=O)C(CO)NC(=O)C(CC2CN(Cc3ccccc3)C(=N)N2C2OC(CO)C(O)C(O)C2O)NC(=O)C(CC2CNC(=N)N2)NC(=O)C(Cc2ccc(OC3OC(CO)C(OC4OC5COC6(OC5C(O)C4O)C4CC5CC(C4)CC6C5)C(O)C3O)cc2)NC1=O (centres unmarked) here.
Data returned: 64

---

Tested on: Staphylococcus sp.
procedure-summary: In vitro antibacterial evaluation: minimum inhibitory concentration (MIC), broth dilution method
Assay type: cell-based
settings: strain ATCC 29213
reported-endpoint: MIC Staphylococcus aureus (ATCC 29213)
# output: numeric value plus its unit

In the examples that follow, each entry is paired with its recorded MIC Staphylococcus aureus (ATCC 29213).
CCCCOC(=O)CCC1OCC2OC(OC3C(CO)OC(Oc4ccc(CC5NC(=O)C(C(C)c6ccccc6)NC(=O)CNC(=O)C(CO)NC(=O)C(C(O)C6CNC(=N)N6C6OC(CO)C(O)C(O)C6O)NC(=O)C(C(O)C6CNC(=N)N6)NC5=O)cc4)C(O)C3O)C(O)C(O)C2O1 (centres unmarked)    2 µg/mL
CC(c1ccccc1)C1NC(=O)CNC(=O)C(CO)NC(=O)C(C(O)C2CNC(=N)N2C2OC(CO)C(O)C(O)C2O)NC(=O)C(C(O)C2CNC(=N)N2)NC(=O)C(Cc2ccc(OC3OC(CO)C(OC4OC5COC(c6ccc(C(=O)c7cc(I)c(I)c(I)c7)cc6)OC5C(O)C4O)C(O)C3O)cc2)NC1=O (centres unmarked)    64 µg/mL
Cc1cccc(C2OCC3OC(OC4C(CO)OC(Oc5ccc(CC6NC(=O)C(C(C)c7ccccc7)NC(=O)CNC(=O)C(CO)NC(=O)C(C(O)C7CNC(=N)N7C7OC(CO)C(O)C(O)C7O)NC(=O)C(C(O)C7CNC(=N)N7)NC6=O)cc5)C(O)C4O)C(O)C(O)C3O2)c1 (centres unmarked)    1 µg/mL
CC(C)CC(=O)OC1C(O)C(OC2C(CO)OC(Oc3ccc(CC4NC(=O)C(C(C)c5ccccc5)NC(=O)CNC(=O)C(CO)NC(=O)C(C(O)C5CNC(=N)N5C5OC(CO)C(O)C(O)C5O)NC(=O)C(C(O)C5CNC(=N)N5)NC4=O)cc3)C(O)C2O)OC2COC3(OC21)C1CC2CC(C1)CC3C2 (centres unmarked)    4 µg/mL

Data request: Please give measured MIC Staphylococcus aureus (ATCC 29213) of the following entry: CC(c1ccccc1)C1NC(=O)CNC(=O)C(CO)NC(=O)C(C(O)C2CN(c3ncccn3)C(=N)N2C2OC(CO)C(O)C(O)C2O)NC(=O)C(C(O)C2CNC(=Nc3ncccn3)N2)NC(=O)C(Cc2ccc(OC3OC(CO)C(OC4OC5COC6(OC5C(O)C4O)C4CC5CC(C4)CC6C5)C(O)C3O)cc2)NC1=O (centres unmarked)
Data returned: 32 µg/mL

---

Listed here: items and their measured MIC Staphylococcus haemolyticus (GC 4546).
Test system: Staphylococcus sp.
procedure-summary: In vitro antibacterial evaluation: minimum inhibitory concentration (MIC), broth dilution method
Format: cell-based
settings: broth dilution, 5×10^5 CFU/mL, 18 hours at 35° C.
Entry rule: numbers only, all in µg/mL.

Answered cases to consult:
COc1cc(OC)cc(C2OC3C(OC4C(CO)OC(Oc5ccc(CC6NC(=O)C(C(C)c7ccccc7)NC(=O)CNC(=O)C(CO)NC(=O)C(C(O)C7CNC(=N)N7C7OC(CO)C(O)C(O)C7O)NC(=O)C(C(O)C7CNC(=N)N7)NC6=O)cc5)C(O)C4O)OC(CO)C(O)C3O2)c1 (stereo not shown) [Example 150a]    16
CCOc1cc(C2OCC3OC(OC4C(CO)OC(Oc5ccc(CC6NC(=O)C(C(C)c7ccccc7)NC(=O)CNC(=O)C(CO)NC(=O)C(C(O)C7CNC(=N)N7C7OC(CO)C(O)C(O)C7O)NC(=O)C(C(O)C7CNC(=N)N7)NC6=O)cc5)C(O)C4O)C(O)C(O)C3O2)ccc1OC (stereo not shown) [Example 152]    8

Data request: In one line, give reported MIC Staphylococcus haemolyticus (GC 4546) of the entry CC(c1ccccc1)C1NC(=O)CNC(=O)C(CO)NC(=O)C(C(O)C2CNC(=N)N2C2OC(CO)C(O)C(O)C2O)NC(=O)C(C(O)C2CNC(=N)N2)NC(=O)C(Cc2ccc(OC3OC(CO)C(OC4OC5COC(c6ccc7c(c6)OCCO7)OC5C(O)C4O)C(O)C3O)cc2)NC1=O (stereo not shown) [Example 149] .
Data returned: 1

---

System: Enterococcus sp.
procedure-summary: In vitro antibacterial evaluation: minimum inhibitory concentration (MIC), broth dilution method
Format: cell-based
settings: Enterococcus faecium (GC 2243); 18 hours at 35° C.
compounds and their reported MIC Enterococcus faecium (GC 2243)
Report only the number, with the unit µg/mL understood.

CC(c1ccccc1)C1NC(=O)CNC(=O)C(CO)NC(=O)C(C(O)C2CNC(=N)N2C2OC(CO)C(O)C(O)C2O)NC(=O)C(C(O)C2CNC(=N)N2)NC(=O)C(Cc2ccc(OC3OC(CO)C(OC4OC5COC(c6cccc(Oc7cccc(C(F)(F)F)c7)c6)OC5C(O)C4O)C(O)C3O)cc2)NC1=O (centres unmarked)    16

Data request: Indicate its recorded MIC Enterococcus faecium (GC 2243); the compound in question is CC(c1ccccc1)C1NC(=O)CNC(=O)C(CO)NC(=O)C(C(O)C2CNC(=N)N2C2OC(CO)C(O)C(O)C2O)NC(=O)C(C(O)C2CNC(=N)N2)NC(=O)C(Cc2ccc(OC3OC(CO)C(OC4OC(CO)C(O)C5OC6(CCCCCCCCCCCC6)OC45)C(O)C3O)cc2)NC1=O (centres unmarked) [Example 210a]
Data returned: 4

Hey, just so you know, these numbers are from patent US8247211B2.
